Molecular target: Nox4 (Homo sapiens, UniProt Q9NPH5)
Construct: expressed in transfected cells
Sequence (Q9NPH5 whole entry): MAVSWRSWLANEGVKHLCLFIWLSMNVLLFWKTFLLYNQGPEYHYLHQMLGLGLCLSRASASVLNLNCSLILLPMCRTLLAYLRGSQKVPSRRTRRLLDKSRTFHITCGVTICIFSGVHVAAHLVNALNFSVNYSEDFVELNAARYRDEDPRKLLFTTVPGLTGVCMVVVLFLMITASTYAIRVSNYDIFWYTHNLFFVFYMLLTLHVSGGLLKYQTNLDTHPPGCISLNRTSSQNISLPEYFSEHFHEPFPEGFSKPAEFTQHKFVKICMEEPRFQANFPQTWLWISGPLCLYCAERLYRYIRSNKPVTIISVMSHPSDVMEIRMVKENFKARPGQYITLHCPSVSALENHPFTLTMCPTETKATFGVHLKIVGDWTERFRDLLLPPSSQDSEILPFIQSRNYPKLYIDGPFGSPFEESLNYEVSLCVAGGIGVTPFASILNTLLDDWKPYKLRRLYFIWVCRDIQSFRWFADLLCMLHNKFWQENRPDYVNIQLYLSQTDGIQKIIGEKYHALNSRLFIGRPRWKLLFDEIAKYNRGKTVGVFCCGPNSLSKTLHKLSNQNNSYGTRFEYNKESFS
Sequence (P13498 whole entry partner): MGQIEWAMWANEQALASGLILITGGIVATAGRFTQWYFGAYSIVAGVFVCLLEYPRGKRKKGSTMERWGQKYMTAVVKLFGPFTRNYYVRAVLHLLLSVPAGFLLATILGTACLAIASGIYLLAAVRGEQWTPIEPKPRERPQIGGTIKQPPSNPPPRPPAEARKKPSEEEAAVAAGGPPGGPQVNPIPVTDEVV
Assay: Inhibition of Nox4-dependent H2O2 production in HEK/Nox4 cells, Amplex Red assay
Format: cell-based
Details: 1 μM final concentration, 1 h, HEK/Nox4 cells; DMSO vehicle = 1.000; n = 3-10; read-out: H2O2 production relative to vehicle control, Mean
assayEndpoint: remaining activity at 1 µM (%)
Form entry: value (%) — number only.

{"columns": ["molecule", "numericValue"],
 "data": [
  ["O=C(CNC1CCCCCC1)N1CCc2ccccc21", 98.4],
  ["O=C(CN1CCN(S(=O)(=O)N2CCOCC2)CC1)N1CCc2ccccc21", 90.6],
  ["c1ccc2c(c1)CCN2CCN1CCCCC1", 110],
  ["CC(CNS(=O)(=O)N1CCN(C)CC1)N1CCc2ccccc21 (stereo not drawn)", 97.2],
  ["O=C(CN1CCN(c2ncccn2)CC1)N1CCc2ccccc21", 96.4]
]}

Lookup result for CCN(CC)S(=O)(=O)NCC(C)(C)N1CCc2ccccc21 ; measured remaining activity at 1 µM: 82.3

Lookup result for CCN(CC)S(=O)(=O)Nc1ccc(N2CCc3ccccc32)cc1 ; measured remaining activity at 1 µM: 92.5

Lookup result for CC(C)(CNS(=O)(=O)c1ccc(Oc2ccccc2)cc1)N1CCc2ccccc21 ; measured remaining activity at 1 µM: 92.7

Lookup result for CCN(CC)S(=O)(=O)N1CCN(CCC(=O)N2CCc3ccccc32)CC1 ; measured remaining activity at 1 µM: 112

Lookup result for CC(CNC(=O)c1csc(-c2ccccc2)n1)N1CCc2ccccc21 (stereo not drawn) ; measured remaining activity at 1 µM: 90.2

Lookup result for O=S(=O)(NCCN1CCc2ccccc21)c1ccc(F)c(F)c1 ; measured remaining activity at 1 µM: 88.8

Lookup result for O=S(=O)(NCCN1CCc2ccccc21)c1ccc(OC(F)(F)F)cc1 ; measured remaining activity at 1 µM: 83.2

Lookup result for CCN(CC)S(=O)(=O)NCC(C)N1CCc2cc(-c3cccc(OC)c3)ccc21 (stereo not drawn) ; measured remaining activity at 1 µM: 102

Lookup result for O=C(CN1CCN(S(=O)(=O)N2CCCCC2)CC1)N1CCc2ccccc21 ; measured remaining activity at 1 µM: 113

Lookup result for O=S(=O)(NCCN1CCc2ccccc21)c1ccc(Oc2ccccc2)cc1 ; measured remaining activity at 1 µM: 89.6

Lookup result for CCN(CC)S(=O)(=O)N1CCN(CCN2CCc3ccccc32)CC1 ; measured remaining activity at 1 µM: 90.2

Lookup result for CC(C)(CNS(=O)(=O)c1ccc(F)cc1)N1CCc2ccccc21 ; measured remaining activity at 1 µM: 90.7

Lookup result for COc1cccc(-c2ccc3c(c2)CCN3C(C)CNS(=O)(=O)N2CCN(C)CC2)c1 (stereo not drawn) ; measured remaining activity at 1 µM: 87.8

meta.source: patent US10654802B2
